Measurement target: r-SgAChE1 (Schizaphis graminum acetylcholinesterase-1) (Schizaphis graminum)
Sequence (Q9BMJ1 98-659): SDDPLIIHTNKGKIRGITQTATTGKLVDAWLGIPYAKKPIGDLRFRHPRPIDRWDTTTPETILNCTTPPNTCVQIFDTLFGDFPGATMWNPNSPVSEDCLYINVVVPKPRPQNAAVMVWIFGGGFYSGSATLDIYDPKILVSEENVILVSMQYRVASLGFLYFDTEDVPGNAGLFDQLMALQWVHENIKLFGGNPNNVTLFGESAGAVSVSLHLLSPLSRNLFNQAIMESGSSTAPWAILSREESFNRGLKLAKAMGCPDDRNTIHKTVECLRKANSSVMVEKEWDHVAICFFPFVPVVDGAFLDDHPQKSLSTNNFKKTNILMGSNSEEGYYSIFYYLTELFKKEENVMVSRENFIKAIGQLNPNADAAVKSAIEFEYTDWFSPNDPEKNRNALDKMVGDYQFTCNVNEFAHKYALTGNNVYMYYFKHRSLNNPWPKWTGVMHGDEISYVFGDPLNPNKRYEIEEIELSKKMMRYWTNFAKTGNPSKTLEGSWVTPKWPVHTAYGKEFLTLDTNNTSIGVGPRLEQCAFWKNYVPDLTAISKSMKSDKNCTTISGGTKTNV
Assay: Kinetics of substrate hydrolysis
Type: biochemical
Stated conditions: comparison with ref 13
molecules and their reported Vmax of r-SgAChE1 relative to SgAChE purified from the greenbug
Readout: Vmax of r-SgAChE1 relative to SgAChE purified from the greenbug

CC(=O)SCC[N+](C)(C)C.[I-] [ATC, Acetylthiocholine iodide]; 1.7 fold
CCCC(=O)SCC[N+](C)(C)C.[I-] [BTC, S-butyrylthiocholine iodide]; 1.9 fold
CCC(=O)SCC[N+](C)(C)C.[I-] [PTC, propionylthio-choline iodide]; 2.0 fold
CC(=O)SC(C)C[N+](C)(C)C.[I-] (stereo not drawn) [AβMTC, acetyl(β-methyl)thiocholine iodide]; 1.6 fold

Ref: paper PMC9301657
